biological target: Human recombinant PKCε (Homo sapiens); test: Protein Kinase Cε Assay; conditions: 10 μM ATP
Sequence (Q02156 whole entry): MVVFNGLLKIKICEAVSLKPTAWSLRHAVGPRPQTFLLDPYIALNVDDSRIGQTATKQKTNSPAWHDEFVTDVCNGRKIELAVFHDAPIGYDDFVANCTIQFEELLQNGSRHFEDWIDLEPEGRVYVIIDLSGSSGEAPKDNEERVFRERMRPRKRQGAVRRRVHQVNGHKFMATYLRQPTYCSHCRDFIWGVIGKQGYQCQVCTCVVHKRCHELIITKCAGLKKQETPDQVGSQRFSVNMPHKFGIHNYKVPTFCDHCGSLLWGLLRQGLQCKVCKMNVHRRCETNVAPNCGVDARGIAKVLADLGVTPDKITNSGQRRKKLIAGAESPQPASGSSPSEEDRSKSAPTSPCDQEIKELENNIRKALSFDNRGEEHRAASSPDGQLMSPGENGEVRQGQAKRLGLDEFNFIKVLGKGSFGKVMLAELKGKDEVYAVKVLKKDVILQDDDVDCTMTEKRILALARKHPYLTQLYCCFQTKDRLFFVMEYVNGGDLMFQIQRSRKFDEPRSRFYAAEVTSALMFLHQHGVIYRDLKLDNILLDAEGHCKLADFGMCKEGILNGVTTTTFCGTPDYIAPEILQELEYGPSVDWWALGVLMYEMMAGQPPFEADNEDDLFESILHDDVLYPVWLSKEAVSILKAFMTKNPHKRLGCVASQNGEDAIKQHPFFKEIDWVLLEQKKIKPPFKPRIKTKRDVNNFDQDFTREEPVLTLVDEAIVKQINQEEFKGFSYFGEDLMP
MEASURED_QUANTITY: IC50 (nM)

* Cc1cccc2c(C3=C(c4nc(N5CCN(C)CC5)nc5ccccc45)C(=O)NC3=O)c[nH]c12 [Example 139] | 20

###

test system: spleen cells from CBA and BALB/c mice; assay: Allogeneic Mixed Lymphocyte Reaction (MLR); assay type: cell-based; conditions: Mus musculus, two-way MLR, 3H-thymidine incorporation
MEASURED_QUANTITY: IC50 (nM)

* CN1CCN(c2nc(C3=C(c4c[nH]c5ccccc45)C(=O)NC3=O)c3ccccc3n2)CC1 [Example 56] | 168
